measurement target: Src(T341M)(h) (Homo sapiens, UniProt P12931, T341M)
assay name: Kinase Profiling Assay
Type: biochemical
test context: 100 μM
reported metric: % activity (%)
State just the number; it will be interpreted in %.

Can you share its % activity? I mean this sequence: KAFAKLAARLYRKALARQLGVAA [MMI-0400]
76

Can you share its % activity? I mean this sequence: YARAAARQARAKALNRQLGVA [MMI-0200]
56

Can you share its % activity? I mean this sequence: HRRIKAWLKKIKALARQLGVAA [MMI-0500]
59

Can you share its % activity? I mean this sequence: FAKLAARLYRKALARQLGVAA [MMI-0300]
70
